B1: TMEM106C (parent)
chain: TVPEILVHNIVIFMRTSVKISYIG

variants of: B1; assay: protein stability index of a GFP-peptide fusion (GPS, HEK-293T) (PSI 1-6); higher = more stable; settings: c terminus: a fixed tail appended;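 note: lentivirally expressed fusions sorted by FACS into six bins by GFP to DsRed ratio, PSI derived from sequencing read proportions per bin multiplied by bin number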
Each record here notes measured protein stability index.
quantity: protein stability index

[[record]]
mutations = "R15K"
reported_value = 3.46

[[record]]
mutations = "M14A"
reported_value = 3.73

[[record]]
mutations = "I10G"
reported_value = 4.19

[[record]]
mutations = "V2F"
reported_value = 2.95

[[record]]
mutations = "I12L"
reported_value = 3.84

[[record]]
mutations = "I12M"
reported_value = 2.29

[[record]]
mutations = "Y22D"
reported_value = 2.46

[[record]]
mutations = "V7A"
reported_value = 3.25

[[record]]
mutations = "R15N"
reported_value = 3.2

[[record]]
mutations = "R15C"
reported_value = 2.91

[[record]]
mutations = "I23C"
reported_value = 2.41

[[record]]
mutations = "F13L"
reported_value = 4.27

[[record]]
mutations = "G24L"
reported_value = 2.82

[[record]]
mutations = "V2L"
reported_value = 3.28

[[record]]
mutations = "V11R"
reported_value = 2.22

[[record]]
mutations = "I5P"
reported_value = 3.34

[[record]]
mutations = "K19E"
reported_value = 4.38

[[record]]
mutations = "I20R"
reported_value = 2.13

[[record]]
mutations = "Y22S"
reported_value = 2.31

[[record]]
mutations = "I23D"
reported_value = 3.85

[[record]]
mutations = "S17L"
reported_value = 2.29

[[record]]
mutations = "V2H"
reported_value = 2.77


Where do these numbers come from? They come from the supplement of paper PMC10567573.
